Assay explanation: inhibitors of E-selectin induction by TNFa, primary screen, imaging, HUVEC, immunofluorescence, MLSMR starter and 10KST1 sets (AID 487);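 note: 100% = median nuclei count of all wells on the same plate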
Setup conditions: HUVEC TNFalpha-induced E-selectin immunofluorescence imaging, at 2 µM; measured here: cell number, toxicity
Listed here are compounds together with their documented nuclei count.
Reported endpoint: nuclei count (%)

{"columns": ["Compound", "Reported endpoint", "Recorded number"],
 "data": [
  ["CCCCc1c(O)nc(N2CCN(Cc3ccccc3)CC2)[nH]c1=O", "nuclei count", 101],
  ["Cc1cc(=O)[nH]c(COc2ccccc2)n1", "nuclei count", 162],
  ["Cc1nc(NC(=O)c2ccccc2)sc1-c1csc(NCc2ccco2)n1", "nuclei count", 113],
  ["O=C(c1cccnc1)N1CCc2ccccc21", "nuclei count", 95.4],
  ["CCN1CCN(CCCNC(=O)C2c3ccccc3C(=O)N(C)C2c2ccc(OC)cc2)CC1 (stereo not drawn)", "nuclei count", 93.8],
  ["COC(=O)c1cc2ccsc2n1Cc1nc(-c2ccc(OC)cc2)oc1C", "nuclei count", 109],
  ["O=C(O)c1ccc(C2CCCCC2)cn1", "nuclei count", 197],
  ["CCOC(=O)N1CCN(CCC(=O)c2ccc(Cl)cc2)CC1", "nuclei count", 69.7],
  ["O=S(=O)(c1cccc2nsnc12)N1CCN(C/C=C/c2ccccc2)CC1", "nuclei count", 117],
  ["CC(C)c1[nH]c(=O)c(C#N)c2c1CSC(C)(C)C2", "nuclei count", 89.3],
  ["CCc1cccc(NC(=O)CCc2nc(-c3cccs3)no2)c1", "nuclei count", 114],
  ["CCOC(=O)c1c(-c2cccs2)csc1NC(=O)c1ccncc1", "nuclei count", 128],
  ["CC(C)CCn1c(NCCc2ccccc2)nc2c1c(=O)n(C)c(=O)n2C", "nuclei count", 108],
  ["COc1ccc(CN(C#N)c2nc(SC)nc(N(C)C)n2)cc1", "nuclei count", 137],
  ["CCOC(=O)N1CCN(C(=O)Cn2ncn3nc(-c4cccs4)cc3c2=O)CC1", "nuclei count", 88.5],
  ["CCOC(=O)c1cc2c(=O)n3ccccc3nc2n(CC2CCCO2)c1=NC(C)=O (stereo not drawn)", "nuclei count", 100],
  ["CCOC(=O)c1c(C)oc2c1c1c(c3ccccc32)OCN(Cc2cccnc2)C1", "nuclei count", 104],
  ["O=C(c1cc2ccccc2oc1=O)N1CCN(c2ccc(N3CCOCC3)nn2)CC1", "nuclei count", 110],
  ["COc1cccc(NC(=O)C2C3C=CC4(O3)C2C(=O)N(C(C)C)C4C(=O)NC2CCCCC2C)c1 (stereo not drawn)", "nuclei count", 114],
  ["O=C(NCc1ccco1)c1cc2cc3ccc(Cl)cc3nc2o1", "nuclei count", 118],
  ["COc1ccc(-c2nnc(SCC(=O)NC(=O)NCc3ccco3)o2)cc1", "nuclei count", 157],
  ["CCOC(=O)C1CCCN(C(=O)c2cc3c(=O)n4cccc(C)c4nc3n2C)C1 (stereo not drawn)", "nuclei count", 66.5],
  ["CC1(C)Cc2nc(NCCN3CCOCC3)c(C#N)cc2CO1", "nuclei count", 149]
]}

---

Listed here are compounds together with their documented inhibition.
Assay explanation: inhibitors of TNFa-induced NFkB p65 translocation, primary screen, imaging, HUVEC, MLSMR starter and 10KST1 sets (AID 438);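 note: compound added about 3h40 before a 20 min TNFalpha stimulation; signal is the nuclear over cytoplasmic p65 intensity ratio per well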
Setup conditions: HUVEC TNFa-induced p65 nuclear translocation; at 2 µM, stronger effect = higher value, 0% TNFa-plus-vehicle, 100% no-TNFa wells
Activity calls are given as the source filed them.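 The calls were made as follows: active = inhibition above 20% together with a positive visual image hit; inconclusive = visual image hit but inhibition not above 20%; inactive = no visual image hit.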

{"columns": ["Compound", "inhibition"],
 "data": [
  ["Cc1cccc(-n2ncc3c(NCc4cccnc4)ncnc32)c1", "-21.7% (inactive)"],
  ["C=CCn1c(SCc2ccc(C#N)cc2)nnc1-c1cccc(Cl)c1", "-11.3% (inactive)"],
  ["CCCOc1ccccc1C(=O)NCCCC(=O)O", "10.3% (inactive)"],
  ["CCCc1cc(C(=O)Nc2ccc(C(C)=O)cc2)no1", "-4.4% (inactive)"],
  ["COc1ccc(-c2ccc(-c3noc(-c4ccccc4OC)n3)c(OC)n2)cc1", "16.9% (inactive)"],
  ["CCN1C(=O)C2(C(C#N)=C(N)Oc3n[nH]c(C(C)C)c32)c2ccccc21 (stereo not drawn)", "-4.5% (inactive)"],
  ["CC1CCN(C(=O)CSc2nnc(-c3ccc(S(=O)(=O)N4CCOCC4)cc3)n2C)CC1", "3.5% (inactive)"],
  ["CCc1nnc(NC(=O)c2cc3ccccc3oc2=O)s1", "-9.6% (inactive)"],
  ["CC1(C)Cc2c(c(N3CCOCC3)nc3sc4c(=O)[nH]cnc4c23)CS1", "-5.7% (inactive)"],
  ["COCc1n[nH]c(=S)n1-c1cccc2ccccc12", "-1.3% (inactive)"],
  ["CC1=C(C(=O)Nc2ccccc2)C(c2ccco2)C(C#N)=C(SCC(=O)Nc2cccc(C)c2C)N1 (stereo not drawn)", "15.7% (inactive)"],
  ["Cn1c(=O)c2c(nc(NCc3ccc4c(c3)OCO4)n2Cc2ccccc2Cl)n(C)c1=O", "-6% (inactive)"],
  ["CCCCOCCCNC(=O)c1cccs1", "4.5% (inactive)"],
  ["CCOc1cccc(C(=O)N2CCCCC2c2cccnc2)c1 (stereo not drawn)", "-0.4% (inactive)"],
  ["O=C(C(c1ccccc1)N1CCOCC1)N1CCOCC1 (stereo not drawn)", "-13.6% (inactive)"],
  ["CCc1nnc(NC(=O)C2Cc3ccccc3CN2S(=O)(=O)c2cccs2)s1 (stereo not drawn)", "-10.2% (inactive)"],
  ["Cc1c(C(=O)NCCC2=CCCCC2)oc2ccc(S(=O)(=O)N3CCC4(CC3)OCCO4)cc12", "10.9% (inactive)"],
  ["CC1(C)CC(=O)C2=C(C1)OC(=O)C2(NC(=O)c1cccs1)C(F)(F)F (stereo not drawn)", "-8.2% (inactive)"],
  ["CCC1(C)Cc2c(C#N)c(N)n(N)c(=S)c2CO1 (stereo not drawn)", "1.1% (inactive)"],
  ["CCC(C)(C(=O)NC1CCCC1)N(C(=O)c1cnccn1)c1c(C)n(C)n(-c2ccccc2)c1=O (stereo not drawn)", "3.8% (inactive)"],
  ["CC(C)(C)SCCNC(=O)CN1C(=O)c2ccccc2S1(=O)=O", "-4.2% (inactive)"],
  ["O=S(=O)(c1ccccc1)N1CCN(S(=O)(=O)c2ccccc2)C1", "5.1% (inactive)"],
  ["CC1=C(C(=O)Nc2ccccc2C)C2(CCCC2)C(C(N)=O)C(=O)N1 (stereo not drawn)", "0% (inactive)"]
]}

---

Assay explanation: inhibitors of Sendai virus-induced IRF3 signaling, primary screen, TLR/RLR signaling modifier project, cell-based, Sendai virus stimulus, luciferase, 10K MLSCN set (AID 602276);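 note: firefly luciferase from ISG56 promoter only with Renilla not read in this screen; 0% = Sendai virus plus DMSO and 100% = medium plus DMSO without virus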
Setup conditions: HEK293 RL24 IRF3 luciferase reporter, at 10 µM, stronger effect = higher value
Tag: label 1 if measured inhibition is not below 10%, label 0 if it is.

{"columns": ["Molecule", "Assigned class"],
 "data": [
  ["O=C(CCNS(=O)(=O)c1cccc2nsnc12)NCc1cccs1", "label 1"],
  ["Cc1ccc(-c2nn(-c3ccccc3)cc2CN(Cc2ccccc2)C(=O)CCC(=O)O)o1", "label 1"],
  ["Cc1coc2cc3oc(=O)c4c(c3cc12)CCC4", "label 0"],
  ["COc1cc(OC)cc(-c2nnc(SCC(=O)Nc3cc(C)on3)o2)c1", "label 0"],
  ["COC(=O)c1ccccc1NC(=O)C1CC(=O)N(c2ccc(F)cc2)C1 (stereo unspecified)", "label 1"],
  ["c1ccc(OCCCn2nnc(-c3cccnc3)n2)cc1", "label 0"],
  ["CCSc1nncn1/N=C/c1ccc(OC)c(OC)c1", "label 0"],
  ["CCOC(=O)C(NC(C)=O)(Nc1ccc(S(=O)(=O)Nc2nccs2)cc1)C(F)(F)F (stereo unspecified)", "label 1"],
  ["CCOC(=O)c1cccc(NC(=O)CNS(=O)(=O)c2cccs2)c1", "label 0"],
  ["CCOC(=O)N1CCN(C(=O)CSc2nnc(-c3cccc(Cl)c3)o2)CC1", "label 0"]
]}

---

Listed here are molecules together with their documented fluorescence slope.
Assay target: Voltage-gated potassium channel subunit beta-2 (Rattus norvegicus)
Assay explanation: KvBeta enzyme negative modulators, primary screen, biochemical, NADPH fluorescence (AID 622);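 note: slope of raw intensity against log time taken from 70 to 1610 s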
Setup conditions: recombinant KvBeta, 4-cyanobenzaldehyde reduction, at 10 µM, stronger effect = higher value
Reported endpoint: fluorescence slope

{"columns": ["Molecule", "Reported endpoint", "Recorded number"],
 "data": [
  ["CN1CCCC(OC(=O)c2ccc3c(c2)OCCO3)C1 (stereo not given)", "fluorescence slope", -0.418],
  ["CN(C)CCCN1C(=O)C(=O)/C(=C(/O)c2ccccc2)C1c1ccccn1 (stereo not given)", "fluorescence slope", -0.486],
  ["O=C(CN1C(=O)c2ccccc2C1=O)OCN1C(=O)c2ccccc2C1=O", "fluorescence slope", -0.348],
  ["COc1ccc(Oc2nc(Oc3ccc(OC)cc3)nc(Oc3ccc(OC)cc3)n2)cc1", "fluorescence slope", -0.536],
  ["CC1(C)Cc2c(C#N)c(SCCOc3ccccc3)nc(N3CCOCC3)c2CO1", "fluorescence slope", -0.415],
  ["CCCCCOC(=O)C(C)c1c(C)[nH]c(=S)[nH]c1=O (stereo not given)", "fluorescence slope", -0.47],
  ["O=C(NC1CCCCC1)c1cc2nc(-c3ccco3)cc(C(F)(F)F)n2n1", "fluorescence slope", -0.218],
  ["COc1ccccc1Oc1ccc(S(=O)(=O)N2CCOCC2)cc1S(=O)(=O)N1CCOCC1", "fluorescence slope", -0.377],
  ["CCOC(=O)N1CCN(c2c(N3CCc4ccccc4C3)c(=O)c2=O)CC1", "fluorescence slope", -0.538],
  ["CC(NC(=O)NCCCn1ccnc1)(C(F)(F)F)C(F)(F)F", "fluorescence slope", -0.438]
]}
